Target: T1, DDX21ΔN (human, UniProt Q9NR30 186-783)
T1 sequence: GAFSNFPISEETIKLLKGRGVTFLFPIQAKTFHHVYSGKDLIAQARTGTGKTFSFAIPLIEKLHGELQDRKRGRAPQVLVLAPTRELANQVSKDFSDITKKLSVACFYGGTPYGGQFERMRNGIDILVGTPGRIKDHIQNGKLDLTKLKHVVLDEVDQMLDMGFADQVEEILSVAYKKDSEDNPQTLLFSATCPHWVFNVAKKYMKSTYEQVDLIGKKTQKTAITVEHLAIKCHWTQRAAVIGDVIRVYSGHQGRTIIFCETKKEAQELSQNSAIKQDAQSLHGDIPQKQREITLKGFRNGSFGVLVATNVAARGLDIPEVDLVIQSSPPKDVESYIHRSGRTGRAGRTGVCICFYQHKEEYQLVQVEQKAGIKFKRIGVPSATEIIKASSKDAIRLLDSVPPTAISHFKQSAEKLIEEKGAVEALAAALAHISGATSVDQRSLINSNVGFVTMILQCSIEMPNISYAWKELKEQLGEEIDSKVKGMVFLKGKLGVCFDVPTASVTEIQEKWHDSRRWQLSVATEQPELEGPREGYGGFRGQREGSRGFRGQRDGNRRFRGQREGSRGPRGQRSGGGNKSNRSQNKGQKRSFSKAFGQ
Experiment: fluorescence polarization; FP: 50 mM Tris pH 7.5, 50 mM KCl, 5 mM MgCl2, no ATP; Hill-slope fit; temperature not given in the material
Conditions: protein: recombinant; chain copies: 2; label: 5'-FAM; single strand
reported.metric: Kd (nM)
Give bare numbers, in nM.

Bench note: what Kd did GUUUCGGAUCGACGC (ssRNA) [15-mer ssRNA] show?
40.3
